Molecular target: NAMPT (Homo sapiens)
Construct: purchased Abcam ab221819
Sequence (P43490 whole entry): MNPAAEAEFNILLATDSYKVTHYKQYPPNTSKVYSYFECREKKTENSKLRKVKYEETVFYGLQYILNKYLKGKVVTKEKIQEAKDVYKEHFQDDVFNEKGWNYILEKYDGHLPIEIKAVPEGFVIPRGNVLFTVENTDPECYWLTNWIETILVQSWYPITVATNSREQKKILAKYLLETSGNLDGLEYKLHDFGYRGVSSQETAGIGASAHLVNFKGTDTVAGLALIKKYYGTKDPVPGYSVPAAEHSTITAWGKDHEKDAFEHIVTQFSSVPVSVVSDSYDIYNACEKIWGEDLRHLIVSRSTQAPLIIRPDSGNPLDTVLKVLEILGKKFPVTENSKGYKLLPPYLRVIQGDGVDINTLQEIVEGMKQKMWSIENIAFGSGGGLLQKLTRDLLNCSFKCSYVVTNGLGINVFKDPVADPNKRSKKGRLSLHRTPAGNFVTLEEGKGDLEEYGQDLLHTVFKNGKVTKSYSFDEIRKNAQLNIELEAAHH
Experiment: NAMPT Activity Assay (Abcam #ab221819)
Format: biochemical
Conditions: purified NAMPT, percent inhibition from OD450 nm; compound concentration not given
Quantity: NAMPT Inhibition Code*

CC(=O)N(CC1CC1)c1ccc(-c2ccc(C(=O)NC3Cc4ccc(Br)cc4C3)cn2)cc1Cl (centres unmarked) [I-T2153] ... A (*A = <33% inhibition)
CC(=O)N(CC1CC1)c1ccc(-c2ccc(NC(=O)Cc3cccnc3Cl)cn2)cc1Cl [I-T2392] ... A (*A = <33% inhibition)
